Target: T1, B-cat-Halo (beta-catenin HaloTag NanoBRET construct expressed in HEK293 cells) (UniProt P35222 1-781)
T1 construct: Transfected together with TCF4-Luc into HEK293 cells; not shown: HaloTag
T1 sequence (looked up): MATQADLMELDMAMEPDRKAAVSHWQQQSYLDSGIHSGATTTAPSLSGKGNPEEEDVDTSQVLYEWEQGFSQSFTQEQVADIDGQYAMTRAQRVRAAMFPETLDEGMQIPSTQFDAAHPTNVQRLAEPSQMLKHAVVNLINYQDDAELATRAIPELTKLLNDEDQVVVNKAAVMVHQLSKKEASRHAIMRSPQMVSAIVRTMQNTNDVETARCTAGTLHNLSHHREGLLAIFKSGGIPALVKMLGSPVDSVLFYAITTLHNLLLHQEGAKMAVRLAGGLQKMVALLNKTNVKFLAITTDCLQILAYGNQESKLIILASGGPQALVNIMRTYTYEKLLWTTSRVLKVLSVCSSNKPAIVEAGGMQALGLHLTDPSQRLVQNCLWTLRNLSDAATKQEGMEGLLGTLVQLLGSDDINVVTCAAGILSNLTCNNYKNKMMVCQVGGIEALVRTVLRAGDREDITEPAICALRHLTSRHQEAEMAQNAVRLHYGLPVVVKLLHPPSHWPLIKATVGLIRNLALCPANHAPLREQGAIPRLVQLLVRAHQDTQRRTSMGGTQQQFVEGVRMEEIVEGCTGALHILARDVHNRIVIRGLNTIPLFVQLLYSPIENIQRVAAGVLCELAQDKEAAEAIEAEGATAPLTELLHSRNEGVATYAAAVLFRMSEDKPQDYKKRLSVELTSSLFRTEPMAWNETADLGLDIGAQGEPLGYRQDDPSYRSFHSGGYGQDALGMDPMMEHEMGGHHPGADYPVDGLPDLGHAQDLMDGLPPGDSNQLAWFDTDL
Experiment: NanoBRET target engagement in HEK293 cells (B-cat-Halo / TCF4-Luc); competitor TCF4-Luc
Starred links: 1 amine or outer side, 2 acyl side, 3 side chain; linkers in the order of their positions; H or OH if unused. Positions of bridges follow the written chain, without caps; N, C: chain ends. Non-standard residues stand in square brackets, D forms with d. Primed or numbered codes have the meaning given here. B5(6) = 2-amino-2-(pent-4-en-1-yl)hept-6-enoic acid (bis(4-pentenyl)glycine), stitching residue, C=CCCCC(CCCC=C)(N[*:1])C(=O)[*:2]; Bta = N[C@@H](Cc1csc2ccccc12)C(=O)O; αAllylPro = C=CC[C@@]1(C(=O)O)CCCN1; S8 = C=CCCCCCC[C@](C)(N)C(=O)O
Measured Metric: IC50 (µM)
State the answer as a number, implicitly in µM.

Record request: IC50 value, item Ac-[αAllylPro]DL[B5(6)]DEAAFQ[S8]F[Bta]Q-NH2 (staple 1-4, 4-11, Stapled peptide composition; also called Ac-PL3-Asp-Leu-B5-Asp-Glu-Ala-Ala-Phe-Gln-S8-Phe-BztA-Gln-NH2) [I-505] 5.6

All values here come from patent US20240116985A1.
